assayed-system: PINK1 (Tribolium castaneum)
Construct: made in house
test-summary: biochemical
Assay type: biochemical
test-conditions: 100 μM; ubiquitin substrate, 10 μM ATP, pH 7.5 Tris-HCl, 25 °C, 10 min; residual ATP luminescence; mean ± SD (n = 3)
No end group written: not given here.
As shown below, each of these substances has a reported PINK1 agonistic rate value.

>  <substance>
ILLIILI [peptide identified from earthworm (Lumbricus terrestris), synthesized by solid phase]

>  <assayed-system>
PINK1 (Tribolium castaneum)

>  <PINK1 agonistic rate>
17.16 ± 0.55%

$$$$
>  <substance>
AVFPSIVGR

>  <assayed-system>
PINK1 (Tribolium castaneum)

>  <PINK1 agonistic rate>
50.35 ± 0.72%

$$$$
>  <substance>
GYSFTTTAER

>  <assayed-system>
PINK1 (Tribolium castaneum)

>  <PINK1 agonistic rate>
52.46 ± 0.96%

$$$$
>  <substance>
AGFAGDDAPR [peptide identified from earthworm (Lumbricus terrestris), synthesized by solid phase]

>  <assayed-system>
PINK1 (Tribolium castaneum)

>  <PINK1 agonistic rate>
33.45 ± 0.45%

$$$$

----------
As shown below, each of these sequences has a reported EC50 value.
assayed-system: PINK1 (Tribolium castaneum, UniProt D6WMX4)
Construct: made in house
Sequence (D6WMX4 6-570): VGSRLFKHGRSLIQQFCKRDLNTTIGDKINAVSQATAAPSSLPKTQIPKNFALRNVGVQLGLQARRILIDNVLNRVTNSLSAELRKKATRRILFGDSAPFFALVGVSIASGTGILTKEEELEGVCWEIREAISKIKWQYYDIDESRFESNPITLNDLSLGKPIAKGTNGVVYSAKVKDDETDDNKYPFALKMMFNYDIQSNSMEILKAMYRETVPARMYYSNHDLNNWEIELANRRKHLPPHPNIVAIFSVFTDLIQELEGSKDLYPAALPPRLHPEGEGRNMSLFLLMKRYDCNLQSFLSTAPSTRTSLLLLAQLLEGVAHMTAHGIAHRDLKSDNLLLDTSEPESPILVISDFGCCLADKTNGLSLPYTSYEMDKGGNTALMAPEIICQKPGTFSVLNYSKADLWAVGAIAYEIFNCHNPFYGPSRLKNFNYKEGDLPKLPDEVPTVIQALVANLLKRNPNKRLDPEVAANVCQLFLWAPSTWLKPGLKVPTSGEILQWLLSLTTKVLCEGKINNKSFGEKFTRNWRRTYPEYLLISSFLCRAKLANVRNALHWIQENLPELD
test-summary: biochemical
Type: biochemical
No end group written: not given here.

>  <macromolecule-sequence>
GYSFTTTAER

>  <EC50, µM>
76.8

$$$$
>  <macromolecule-sequence>
AVFPSIVGR

>  <EC50, µM>
88.5

$$$$
